Field pIC50: reported value for Telomerase reverse transcriptase (Homo sapiens, UniProt O14746); entries drawn from several documents.
Lab note: report pIC50 as minus log10 of the concentration in molar units, number only.

pIC50 on Telomerase reverse transcriptase (Homo sapiens, UniProt O14746) for Cc1cc(N)c2cc(Nc3nc(N)nc(Nc4ccc5c(c4)c(N)cc(C)[n+]5C)n3)ccc2[n+]1C is 6.60

pIC50 on Telomerase reverse transcriptase (Homo sapiens, UniProt O14746) for O=Cc1cccc(C(=O)Sc2ccc(F)cc2)n1 is 4.19

pIC50 on Telomerase reverse transcriptase (Homo sapiens, UniProt O14746) for CC[N+](C)(CC)CCC(=O)Nc1ccc(NC(=O)CC[N+](C)(CC)CC)c2c1C(=O)c1ccccc1C2=O is 5.51

pIC50 on Telomerase reverse transcriptase (Homo sapiens, UniProt O14746) for Cc1cc(N)c2cc(Nc3nc(N)nc(Nc4ccc5nc(C)cc(N)c5c4)n3)ccc2n1 is 7.29

pIC50 on Telomerase reverse transcriptase (Homo sapiens, UniProt O14746) for Cc1cc2c3c([n+](C)c4ccccc4c3c1)-c1ccccc1N2C is 6.12

pIC50 on Telomerase reverse transcriptase (Homo sapiens, UniProt O14746) for CCCc1n[nH]c(C(N)=O)c1NC(=O)/C=C/c1ccco1 is 5.99
